Every entry's value here was drawn from PubChem BioAssay AID504822.

Target: Caspase-7 (Homo sapiens)
Assay: activators of human procaspase-7 D3A mutant, late-stage follow-up, biochemical, absorbance, PC-7 D3A triple mutant, powder samples (AID 504822)
Conditions: recombinant procaspase-7 D3A, Ac-DEVD-pNA absorbance
Calls of active or inactive are those of the source.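 The calls were made as follows: active = EC50 for procaspase-7 activation at or below 10 µM; inactive = EC50 above 10 µM.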
In this exercise, the only acceptable responses are yes = active, no = inactive

O=C(Nc1ccc(Cc2ccncc2)cc1)C1CCC(N2C(=O)C3C4C=CC(C5CC45)C3C2=O)CC1 (stereo not given); no
O=C(C1=NN(c2ccccc2)C2C(=O)N(c3ccccc3)C(=O)C12)c1ccccc1 (stereo not given); no
COC(=O)C1=NN(c2ccc(Cl)cc2)C2C(=O)N(c3ccccc3OC)C(=O)C12 (stereo not given); no
COc1ccccc1N1C(=O)C2C(C(=O)c3ccccc3)=NN(c3ccccc3)C2C1=O (stereo not given); no

Dear colleague, could you share the recorded outcome for Cc1[nH]nc2c1C(c1c[nH]c3ccccc13)C(C#N)=C(N)O2 (stereo not given) when you have a moment?
yes
